assay-target: furin, P09958;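 note: purified furin at 1:10 enzyme:substrate in 50 mM HEPES pH 7.5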
Sequence (P09958 whole entry): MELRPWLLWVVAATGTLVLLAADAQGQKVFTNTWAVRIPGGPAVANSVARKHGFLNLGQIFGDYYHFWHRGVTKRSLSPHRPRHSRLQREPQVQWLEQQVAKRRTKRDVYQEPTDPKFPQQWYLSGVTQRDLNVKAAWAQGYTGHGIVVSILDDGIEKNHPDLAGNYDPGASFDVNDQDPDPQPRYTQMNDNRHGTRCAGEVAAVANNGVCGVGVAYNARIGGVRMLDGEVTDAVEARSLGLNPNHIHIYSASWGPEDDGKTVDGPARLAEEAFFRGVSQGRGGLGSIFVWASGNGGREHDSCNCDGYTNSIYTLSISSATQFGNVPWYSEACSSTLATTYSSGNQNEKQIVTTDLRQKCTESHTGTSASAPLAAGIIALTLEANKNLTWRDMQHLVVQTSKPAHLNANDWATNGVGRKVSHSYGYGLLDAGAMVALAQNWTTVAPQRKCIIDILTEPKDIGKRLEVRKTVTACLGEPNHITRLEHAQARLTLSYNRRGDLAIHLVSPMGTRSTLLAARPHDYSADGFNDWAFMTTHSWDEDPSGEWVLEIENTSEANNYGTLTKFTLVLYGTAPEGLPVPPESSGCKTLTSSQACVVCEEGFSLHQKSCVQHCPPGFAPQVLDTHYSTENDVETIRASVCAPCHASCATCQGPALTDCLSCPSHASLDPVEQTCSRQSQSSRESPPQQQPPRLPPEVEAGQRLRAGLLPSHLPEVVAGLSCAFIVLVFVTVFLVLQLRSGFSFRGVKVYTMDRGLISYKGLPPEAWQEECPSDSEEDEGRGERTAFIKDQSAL
method: furin cleavage Z-score vs untreated control; higher = more cleavage, active = 3.5 or more, inactive = 1 or less, 8 variable residues between constant flanks
experimental-parameters: 15 min
The list shows a part of the results. The true hit rate is not given.
measure: furin cleavage Z-score

Q) Can you look up the measured furin cleavage Z-score of CAWAHNGLRDAGNASASA [HC640] for me?
A) 0.97 (inactive)

Q) Look at this sequence and give its reported furin cleavage Z-score. CAVEPVVFSQAGNASASA [HC646]
A) 0.0995 (inactive)

Q) Find the recorded furin cleavage Z-score belonging to CAYGCRRRRDAGNASASA [FS-737] and report it.
A) 10.6 (active)

Q) Would you mind telling me what furin cleavage Z-score value was observed for CATDFDQGWGAGNASASA [HC392] ?
A) -2.3 (inactive)

Source: the supplement of paper PMC3545927
